- Target or test system: BtGH99 (Bacteroides thetaiotaomicron, UniProt Q8A109)
- Sequence (Q8A109 18-382, change not shown): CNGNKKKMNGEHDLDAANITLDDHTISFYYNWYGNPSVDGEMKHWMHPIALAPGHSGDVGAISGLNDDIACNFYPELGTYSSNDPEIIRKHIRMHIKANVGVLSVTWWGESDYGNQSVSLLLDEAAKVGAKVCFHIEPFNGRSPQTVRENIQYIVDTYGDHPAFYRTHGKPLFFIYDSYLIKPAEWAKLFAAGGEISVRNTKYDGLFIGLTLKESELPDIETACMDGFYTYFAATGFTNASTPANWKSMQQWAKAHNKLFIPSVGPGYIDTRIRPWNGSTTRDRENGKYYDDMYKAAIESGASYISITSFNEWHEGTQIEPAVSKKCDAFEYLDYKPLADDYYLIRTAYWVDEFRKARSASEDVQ
- Assay protocol: 2D NMR
- Assay type: binding
Observation type: Kd (µM)
Field format: number, assumed µM, no unit text.

INSERT INTO measurements (compound, output_unit, value) VALUES
  ('OC[C@H]1OCC[C@@H](O[C@H]2O[C@H](CO)[C@@H](O)[C@H](O)[C@@H]2O)[C@@H]1O [compound 5]', 'µM', 53);

The reported value for OC[C@H]1O[C@H](O[C@@H]2C=CO[C@H](CO)[C@H]2O)[C@@H](O)[C@@H](O)[C@@H]1O [compound 7] in terms of Kd is 15
